# Measurement target: ERK protein (Homo sapiens, UniProt P28482)
# Sequence (P28482 2-360): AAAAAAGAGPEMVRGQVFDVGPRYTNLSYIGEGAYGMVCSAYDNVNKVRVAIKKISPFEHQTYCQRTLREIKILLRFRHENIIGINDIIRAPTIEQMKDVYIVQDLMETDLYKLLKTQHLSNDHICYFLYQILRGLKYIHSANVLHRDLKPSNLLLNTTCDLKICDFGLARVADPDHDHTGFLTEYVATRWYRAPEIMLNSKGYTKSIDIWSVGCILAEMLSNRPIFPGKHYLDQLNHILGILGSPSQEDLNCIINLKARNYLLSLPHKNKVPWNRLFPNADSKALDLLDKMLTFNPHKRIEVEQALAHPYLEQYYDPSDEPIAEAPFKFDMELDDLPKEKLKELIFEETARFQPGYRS
pKd: −log10 of the molar value.
The following molecules are listed with their measured pKd values.

{"columns": ["Molecule", "pKd"],
 "data": [
  ["COc1ccc(CN2CCOC(C(=O)Nc3ccc4[nH]nc(-c5ccncc5)c4c3)C2)cc1 (stereo not shown) [Compound 33]", 5.94],
  ["O=C(Nc1ccc2[nH]nc(-c3ccncc3)c2c1)C1CN(Cc2c(F)cccc2F)CCO1 (stereo not shown) [Compound 44]", 6.78],
  ["O=C(Nc1ccc2[nH]nc(-c3ccncc3)c2c1)C1CN(Cc2ccccc2)CCC12OCCO2 (stereo not shown) [Compound 72]", 6.65],
  ["O=C(Nc1ccc2[nH]nc(-c3ccncc3)c2c1)C1CCCN(Cc2ccccc2)C1 (stereo not shown) [Compound 24]", 7.70]
]}
